- target-or-system: recombinant human GST-SYK (Homo sapiens, UniProt P43405)
- Construct: purchased Carna Biosciences 08-176
- method-notes: Homogeneous Time-Resolved Fluorescence (HTRF) assay for the recombinant human Syk enzyme
- Assay type: biochemical
- applied-conditions: HTRF assay, recombinant human GST-SYK; IC50 given as class symbols; read-out: rhSYK Activity
pIC50: −log10 of the molar value.
Reported pIC50 values for the following compounds.

Look over these answered cases.
compound: Oc1ccc(-c2cccc(Nc3nccc(C(F)(F)F)n3)c2)cn1 [Example 2.43]
pIC50: 6.00 to 7.00
--
compound: Cc1cc(Nc2nccc(C(F)(F)F)n2)cc(-c2ccc(N3CCNC(=O)CC3)nc2)c1 [Example 7.27]
pIC50: > 7.00
--
compound: O=C(O)CCc1ccc(-c2cccc(Nc3nccc(C(F)(F)F)n3)c2)nc1 [Example 2.16]
pIC50: 6.00 to 7.00
--
compound: Cc1cc(Nc2nccc(C(F)(F)F)n2)cc(-c2ccc(NCC(=O)N(C)C)nc2)c1 [Example 7.66]
pIC50: > 7.00
--
compound: Cc1cc(Nc2nccc(C(F)(F)F)n2)cc(-c2ccc(NC(C)(CC(F)(F)F)C(=O)O)nc2)c1 (stereo not shown) [Example 18.5]
pIC50: > 7.00
--
compound: COCC1CCN(c2ccc(-c3cc(C)cc(Nc4nccc(C(F)(F)F)n4)c3)cn2)C1 (stereo not shown) [Example 7.61]
pIC50: 6.00 to 7.00
--
compound: Cc1cc(Nc2nccc(C(F)(F)F)n2)cc(-c2ccnc(N3CCC(C(N)=O)CC3)c2)c1 [Example 15.46]
pIC50: > 7.00
--
compound: Cc1cc(Nc2nccc(C(F)(F)F)n2)cc(-c2ccnc(N3CCNC(=O)CC3)c2)c1 [Example 15.42]
pIC50: > 7.00

// recorded pIC50 for Cc1cc(Nc2nccc(C(F)(F)F)n2)cc(-c2ccc(NC3(C(=O)O)CC3)nc2)c1 [Example 7.129] : > 7.00

Cc1cc(Nc2nccc(C(F)(F)F)n2)cc(-c2ccc(C(=O)N3CC(=O)NC(=O)C3)nc2)c1 [Example 16.18] has a reported pIC50 of > 7.00

Sure, the documented pIC50 for Cc1cc(Nc2nccc(C(F)(F)F)n2)cc(-c2ccnc(N3CCCC4(CCOC4=O)C3)c2)c1 (stereo not shown) [Example 15.30] is > 7.00

Query Cc1cc(Nc2nccc(C(F)(F)F)n2)cc(-c2ccc(C(=O)NS(C)(=O)=O)nc2)c1 [Example 16.1] yields pIC50 of > 7.00

# compound Cc1cc(Nc2nccc(C(F)(F)F)n2)cc(-c2ccc(N3CCCC4(CCCO4)C3)nc2)c1 (stereo not shown) [Example 7.11] ; its pIC50 = 6.00 to 7.00

Just so you know, measured pIC50 for Cc1cc(Nc2nccc(C(F)(F)F)n2)cc(-c2ccc(C(=O)N3CCN(C)C(=O)C3C)nc2)c1 (stereo not shown) [Example 16.23] came out at 6.00 to 7.00

Value of pIC50 reported for the compound Cc1cc(Nc2nccc(C(F)(F)F)n2)cc(-c2cncc(C(=O)O)c2)c1 [Example 2.69] is > 7.00

Form: compound = O=C(O)CCc1cncc(-c2cccc(Nc3nccc(C(F)(F)F)n3)c2)c1 [Example 2.79] ; pIC50 = > 7.00
